Molecular target: T1, human iRhom2, endogenously expressed (human, UniProt Q6PJF5 1-856)
T1 sequence: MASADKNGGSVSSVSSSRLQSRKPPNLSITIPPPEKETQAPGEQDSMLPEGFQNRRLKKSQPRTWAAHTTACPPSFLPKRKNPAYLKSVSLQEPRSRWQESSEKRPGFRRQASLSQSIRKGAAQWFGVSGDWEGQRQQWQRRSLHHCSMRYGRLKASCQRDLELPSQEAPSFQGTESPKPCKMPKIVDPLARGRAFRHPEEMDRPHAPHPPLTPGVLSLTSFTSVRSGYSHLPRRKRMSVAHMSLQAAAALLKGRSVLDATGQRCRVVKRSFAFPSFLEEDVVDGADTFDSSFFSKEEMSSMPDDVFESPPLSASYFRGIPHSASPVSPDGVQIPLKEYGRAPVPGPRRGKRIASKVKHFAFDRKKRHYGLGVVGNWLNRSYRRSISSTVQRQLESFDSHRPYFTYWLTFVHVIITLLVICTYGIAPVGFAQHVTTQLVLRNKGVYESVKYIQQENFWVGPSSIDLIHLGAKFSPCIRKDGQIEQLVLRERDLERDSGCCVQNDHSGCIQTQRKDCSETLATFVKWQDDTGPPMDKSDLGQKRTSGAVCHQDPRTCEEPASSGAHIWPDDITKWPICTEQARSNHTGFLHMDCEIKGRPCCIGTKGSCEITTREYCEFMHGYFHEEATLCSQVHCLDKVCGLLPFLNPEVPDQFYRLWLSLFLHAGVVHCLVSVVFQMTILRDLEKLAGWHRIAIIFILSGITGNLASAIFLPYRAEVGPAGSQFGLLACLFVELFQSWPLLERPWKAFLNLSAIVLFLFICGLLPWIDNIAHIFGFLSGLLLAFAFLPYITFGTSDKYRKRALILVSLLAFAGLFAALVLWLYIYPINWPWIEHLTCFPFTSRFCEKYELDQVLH
Assay: cell-based or functional assay
readout.name: PMA-induced IL-6R release from U-937 cells, percent inhibition, 3 µg/ml (%)
Numbers only, in %.

binder	measurement
chimeric antibody 42 (antibody, V domains shown) VH: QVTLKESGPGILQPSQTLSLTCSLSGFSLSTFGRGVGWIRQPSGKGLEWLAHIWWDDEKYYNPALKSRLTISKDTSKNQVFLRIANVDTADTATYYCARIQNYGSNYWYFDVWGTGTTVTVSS VL: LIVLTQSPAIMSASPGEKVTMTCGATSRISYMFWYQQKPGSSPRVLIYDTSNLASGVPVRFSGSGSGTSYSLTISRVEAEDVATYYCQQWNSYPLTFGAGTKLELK	91.8
antibody 16 (antibody, V domains shown, mouse IgG, kappa light chain; also called clone #16; purified antibody 16) VH: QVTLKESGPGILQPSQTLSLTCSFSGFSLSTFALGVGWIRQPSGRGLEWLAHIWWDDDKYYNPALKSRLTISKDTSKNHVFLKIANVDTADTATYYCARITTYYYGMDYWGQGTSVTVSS VL: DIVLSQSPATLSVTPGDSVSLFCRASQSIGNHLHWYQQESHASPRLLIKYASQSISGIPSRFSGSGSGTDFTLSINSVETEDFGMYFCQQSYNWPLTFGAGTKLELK	77.4
chimeric antibody 16 (antibody, V domains shown, chimeric version of clone #16, made in CHO cells, detected with anti-human IgG; also called ch16; chl6 (so in the source)) VH: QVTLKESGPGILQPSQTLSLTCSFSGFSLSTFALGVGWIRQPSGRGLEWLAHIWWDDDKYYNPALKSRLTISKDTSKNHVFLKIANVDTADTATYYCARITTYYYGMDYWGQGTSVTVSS VL: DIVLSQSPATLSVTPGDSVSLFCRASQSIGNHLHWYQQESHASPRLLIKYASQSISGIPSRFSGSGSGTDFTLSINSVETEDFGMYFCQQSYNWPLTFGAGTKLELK	84.3

# next binder below
Kindly note the recorded PMA-induced IL-6R release from U-937 cells, percent inhibition, 3 µg/ml for antibody 42 (antibody, V domains shown, mouse IgG, kappa light chain; also called clone #42; purified antibody 42) VH: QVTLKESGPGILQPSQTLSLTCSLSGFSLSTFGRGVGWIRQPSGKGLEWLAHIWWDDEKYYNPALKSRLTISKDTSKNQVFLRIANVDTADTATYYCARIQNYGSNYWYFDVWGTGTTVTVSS VL: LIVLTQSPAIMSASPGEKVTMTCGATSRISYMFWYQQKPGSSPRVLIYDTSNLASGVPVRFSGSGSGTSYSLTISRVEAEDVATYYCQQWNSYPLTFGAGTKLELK , which is 84.4
